Values were extracted from the supplement of paper PMC12764529.

Test: folding stability dG unfold from chymotrypsin proteolysis; higher = more stable
Each item that follows carries a reported folding stability dG unfold.

{"columns": ["sequence entry", "folding stability dG unfold [kcal/mol]"],
 "data": [
  ["SAGGSAGGSAGPVTITIKVPKEDEEEIEALARELAAALPPPEGAKVTVERNEDGTITITLSAGGSAGGSAGG [r17_324_TrROS_Hall]", 1.6],
  ["SAGGSADNENNENQKPKPKPKKKLEVTIPVPLPPGDSLEEAMEQAYNIANHLAQSGKLDEVEISIFSAGGSA [r15_450_TrROS]", -0.241],
  ["SSITETKEFLLESEEEVEAIAEELKKPGVEVEVEVKEVERVDKKTGKKKKALKATITVKIPLPPPEKGKLSA [r9_962_JUSTAS]", 0.742],
  ["SAGGSAGGSAGGWYIYFPNHYYPIKKITINPGGNIEIEFPNGNERTFDNVSIMPPGQEISAGGSAGGSAGGS [r10_1151_TrROS]", 0.105],
  ["SAGGKMVKIEITLSPEEIEKIKEKLEEETGLEVEIKVEKNENGEVKLIITFKSEEAAKKALEKLGIESAGGS [r16_172_TrROS_Hall]", 3.7],
  ["SAGGGSMVVEKPVALPPDTDVEEVAKEVAEELFPEDEKYKIEVERYPDSVRITVYDPKNGKPVIETVDSAGG [r13_724_JUSTAS]", -0.565],
  ["SAELKISKIDVSSLPDGSKKVTVNFSAPNFKVTITLDKSGNVSVEVSPEARKLPPEFFNLILNLAKELGSAG [r14_555_TrMRF]", 4.14]
]}
